Could you please report measured solubility for the items listed next?
experiment_notes: Solubility of the compound
Format: physicochemical
test_context: read-out: solubility
Be sure to follow the number with its unit.

Sample records with solubility:
- structure_notation: "O=C(O)CN(c1ccc(N(CC(=O)O)S(=O)(=O)c2ccccc2)c2ccccc12)S(=O)(=O)c1ccccc1"
  reported_result: "183 µg/mL"
- structure_notation: "Cc1ccc(S(=O)(=O)N(CC(=O)O)c2ccc(N(CC(=O)O)S(=O)(=O)c3ccc(C)cc3)c3ccccc23)cc1"
  reported_result: "248 µg/mL"
- structure_notation: "CC(=O)Nc1ccc(S(=O)(=O)N(CC(=O)O)c2ccc(N(CC(=O)O)S(=O)(=O)c3ccc(NC(C)=O)cc3)c3ccccc23)cc1"
  reported_result: "5000 µg/mL"

// input: 4 compounds below; output: solubility for each
1. O=C(O)CN(c1ccc(N(CC(=O)O)S(=O)(=O)c2ccc(F)cc2)c2ccccc12)S(=O)(=O)c1ccc(F)cc1
2. CC(C)(C)c1ccc(S(=O)(=O)N(CC(=O)O)c2ccc(N(CC(=O)O)S(=O)(=O)c3ccc(C(C)(C)C)cc3)c3ccccc23)cc1
3. O=C(O)CN(c1ccc(N(CC(=O)O)S(=O)(=O)c2ccc(Cl)cc2)c2ccccc12)S(=O)(=O)c1ccc(Cl)cc1
4. Cc1cc(C)c(S(=O)(=O)N(CC(=O)O)c2ccc(N(CC(=O)O)S(=O)(=O)c3c(C)cc(C)cc3C)c3ccccc23)c(C)c1

// result
["3800 µg/mL", "1.6 µg/mL", "1200 µg/mL", "20 µg/mL"]
